# Tested on: XF498
# PROTOCOL_DETAILS: NCI tumour cell line growth inhibition, 48 h
Calls of active or inactive are those of the source. Cut-off read from the data, not from the text of the source: active = GI50 up to about 1.1 µM and inactive = higher.
OUTCOME_MEASURE: GI50

Field: example entries. Status: answers known.
INSERT INTO results (molecule, outcome_measure, result) VALUES
  ('COC(=O)C1=CC2C(=O)OC1C1C(=O)NC(=O)C21 (stereo unspecified)', 'GI50', '> 100 µM (inactive)'),
  ('Cc1cccc(C)c1N1C(=O)C(=O)C(c2nc3ccccc3s2)/C(=N/NC(=O)NN)C1=O (stereo unspecified)', 'GI50', '> 100 µM (inactive)'),
  ('N#Cc1cccc(N2C(=O)c3ccc(C(=O)c4ccc5c(c4)C(=O)N(c4cccc(C#N)c4)C5=O)cc3C2=O)c1', 'GI50', '> 100 µM (inactive)'),
  ('COc1ccc(C2=NN(c3ccccc3)C[N+](c3ccc(OC)cc3)=N2)cc1', 'GI50', '18.8 µM (inactive)'),
  ('O=C(Cc1ccccc1)NN1C(=O)C(Cl)C1c1ccc([N+](=O)[O-])cc1 (stereo unspecified)', 'GI50', '> 100 µM (inactive)');

Required: GI50, one value per molecule below.
1. CC1C(=O)C(C)C(c2cccs2)N(N=O)C1c1cccs1 (stereo unspecified)
2. COc1ccc(/C(=N/NC(N)=O)C2(O)C(=O)Nc3ccc([N+](=O)[O-])cc32)cc1 (stereo unspecified)
3. CCCCCCCCCCCCCC(=O)CC(=O)c1c(O)cccc1O
4. COc1ccccc1/C=C1\C(=O)N(C(=O)Cc2ccccc2)N=C1C
5. CC1C[C@@H]2C(=O)NC(=O)[C@@H]2c2c1c1ccccc1n2C (stereo partly specified)

1: 14.8 µM (inactive); 2: 16.5 µM (inactive); 3: 24.5 µM (inactive); 4: > 100 µM (inactive); 5: > 100 µM (inactive)

// each molecule listed below needs its GI50
1. O=C(NC(Cc1ccc(I)cc1)C(=O)O)c1ccc(I)cc1 (stereo unspecified)
2. O=C(CSc1nnc(-c2ccc(/N=C\c3ccc(Cl)cc3)cc2)o1)Nc1ccccc1Cl
3. C[N+]1(C)C/C(=C\C=C\c2ccccc2)C(=O)/C(=C/C=C/c2ccccc2)C1
4. COC1OC(CBr)C(OC(=O)c2ccccc2)C(O)C1Br (stereo unspecified)
5. Cc1ccc(-c2c(N)[n+]([O-])c3ccccc3[n+]2[O-])cc1
6. CC1OC(n2cc(I)c(=O)[nH]c2=O)C=CC1=O (stereo unspecified)
7. CC(C)N(C(=O)C12C3C4C1C1C2C3C41C(O)C(C)(C)C)C(C)C (stereo unspecified)
8. CCOC(=O)C(=O)/C=C(\C)Nc1c(NC2OCC(OC(C)=O)C(OC(C)=O)C2OC(C)=O)nc(SC)[nH]c1=O (stereo unspecified)

1: > 66.4 µM (inactive); 2: > 100 µM (inactive); 3: 8.49 µM (inactive); 4: > 10 µM (inactive); 5: 3.71 µM (inactive); 6: 19.2 µM (inactive); 7: > 50 µM (inactive); 8: > 100 µM (inactive)

For every item below, please supply its GI50.
1. O=c1c(Cl)c(Cl)cnn1-c1ccccc1
2. CC12CC[C@H](O)C(C)(C)[C@H]1CC[C@](C)(O)C2COc1ccc2ccc(=O)oc2c1 (stereo partly specified)
3. CCCCCCCCCCCCNC(=S)OCCCC

1: 2.46 µM (inactive); 2: > 100 µM (inactive); 3: > 100 µM (inactive)

====

# Test system: EKVX
# PROTOCOL_DETAILS: NCI tumour cell line growth inhibition, 48 h
The source made the active and inactive calls. Cut-off read from the data, not from the text of the source: active = GI50 up to about 1.1 µM and inactive = higher.
Kindly state GI50 for each of the entries shown.

// each listed compound needs a value for GI50
1. O=C1NC(Nc2cccc(Cl)c2)=N/C1=C\c1ccc(Cl)c(Cl)c1
2. CCC(Nc1ncnc2nc[nH]c12)C(=O)O (stereo unspecified)

1: 3.67 µM (inactive); 2: > 100 µM (inactive)

Provide GI50 values for the following items, in order.
1. CN(C(=O)Cc1ccc(Cl)c(Cl)c1)[C@@H]1CCCC[C@H]1[N+]1(C)CC=CC1
2. COC(=O)C1=CC2OC13CC1CCC3(C2=O)C1(C)C (stereo unspecified)
3. COC(=O)C1CC2C=CC=CC(=O)C2(C)C1 (stereo unspecified)
4. Cc1c(C(=O)CC(=O)C(=O)Nc2ccccc2C(F)(F)F)[n+]([O-])c2ccccc2[n+]1[O-]
5. O=C1CC(C(OCc2ccccc2)C(OCc2ccccc2)C(OCc2ccccc2)C(COCc2ccccc2)OCc2ccccc2)CC(=O)N1 (stereo unspecified)

["> 100 µM (inactive)", "> 10 µM (inactive)", "> 100 µM (inactive)", "19.5 µM (inactive)", "> 100 µM (inactive)"]

// for each compound below, give its GI50
1. COc1ccc(/C=C2\CCNC2=O)cc1
2. O=C1Oc2ccccc2C(=O)/C1=C\Nc1nc(-c2ccccc2)cs1
3. Cc1cc(NC(=S)SCc2ccc(F)cc2)c([N+](=O)[O-])cc1C
4. O=C1OC(CC(=O)c2ccc(Cl)cc2)C(Cl)=C1Cl (stereo unspecified)

> 29.4 µM (inactive)
19.5 µM (inactive)
39.6 µM (inactive)
> 100 µM (inactive)

====

Would you kindly list GI50 for each of these molecules?
# System: NCI/ADR-RES
# PROTOCOL_DETAILS: NCI tumour cell line growth inhibition, 48 h
Calls of active or inactive are those of the source. Rule as the data show it: active = GI50 up to about 1.1 µM and inactive = higher.

INSERT INTO results (molecule, outcome_measure, result) VALUES
  ('C1=N\CCNCC/N=C\c2ccc(cc2)OCc2cccc(n2)COc2ccc/1cc2', 'GI50', '63.1 µM (inactive)'),
  ('Cc1cc(C)c(S(=O)(=O)N(CCCCN)OCCCN)c(C)c1', 'GI50', '20.7 µM (inactive)'),
  ('C=CC(CCc1ccc(C(=O)OCC)cc1)c1c(N)nc(N)[nH]c1=O (stereo not drawn)', 'GI50', '> 100 µM (inactive)');

Batch: GI50 for all items listed.
1. Cn1c(=O)cc(Nc2ccc(N)cc2)[nH]c1=O
2. Nc1cc2c3c(cccc3c1)C(=O)N(c1ccc(OCCN3CCCC3)cc1)C2=O
3. COc1ccc(NC(=O)CC(=O)N2N=C(c3ccccc3)C(/N=N/c3ccc(S(=O)(=O)CCOS(=O)(=O)O)cc3)C2=O)cc1 (stereo not drawn)
4. COC(=O)C1C2C=CC(C2)N1S(=O)(=O)c1ccccc1 (stereo not drawn)
5. C#CCOC(=O)c1ccccc1OC(C)=O
6. Cc1ccc(/C=C2\CCCc3ccccc3C2=O)cc1

> 100 µM (inactive)
23.9 µM (inactive)
> 100 µM (inactive)
> 100 µM (inactive)
> 100 µM (inactive)
8.67 µM (inactive)

Batch of 3 molecules: report GI50 for each.
1. NC(=S)N/N=C1\CCCC1C(O)(C(F)(F)Cl)C(F)(F)Cl (stereo not drawn)
2. CCOC(=O)CCSc1nc2ccc(I)cc2c(=O)n1Cc1ccccc1
3. COc1ccccc1Cc1ccc(C2C=CC3(CC(=O)C=C3C)C(=O)C2)o1 (stereo not drawn)

["> 10 µM (inactive)", "23.7 µM (inactive)", "24.7 µM (inactive)"]

====

# Tested on: CAKI-1
# PROTOCOL_DETAILS: NCI tumour cell line growth inhibition, 48 h
Calls of active or inactive are those of the source. Rule as the data show it: active = GI50 up to about 1.1 µM and inactive = higher.
Give your call using only these classes: active, inactive

INSERT INTO results (compound, group_label) VALUES
  ('Cc1ccc(NC(=O)CC2SC(Nc3ccc(Cl)cc3)=NC2=O)cc1C (stereo unspecified)', 'inactive'),
  ('O=c1c(Cl)nsnc1Cl', 'inactive'),
  ('CC1OC(n2cc(I)c(=O)[nH]c2=O)C=CC1=O (stereo unspecified)', 'inactive'),
  ('COC(=O)CC(CC(=O)C(=O)OC)C(=O)OC (stereo unspecified)', 'inactive'),
  ('O=C(NCCNCCO)N/N=C/c1ccc(Cl)cc1', 'inactive'),
  ('CCCCCCCCCCCCCC(=O)CC(=O)c1c(O)cccc1O', 'inactive'),
  ('C=C1CCC[C@@H](C)C(O)[C@@H]2OC(=O)C(=C)[C@@H]2C[C@@H](OC(C)=O)[C@@]2(C)CC[C@@H]1O2 (stereo partly specified)', 'inactive'),
  ('Cc1ccc(/C=C/c2n[nH]c(N/N=C/c3ccc4c(c3)OCO4)nc2=O)cc1', 'inactive'),
  ('CCCc1c(O)c(=O)c2c(OC)cc(OC)c3c4c(OC)cc(OC)c5c(=O)c(O)c(CCC)c(c1c23)c54', 'active'),
  ('Nc1cc2c3c(cccc3c1)C(=O)N(c1ccc(OCCN3CCCC3)cc1)C2=O', 'inactive');

Switching to the query record.
GET /call?item= CCOC(=O)c1nc2cc(C(F)(F)F)ccc2nc1Nc1ccc(Cl)c(Cl)c1 returns the recorded outcome of this test. inactive
